- Tested on: 699152-130-R-J1-PDC complex spheroid viability
- test_protocol: Anticancer human tumor 699152-130-R-J1-PDC patient-derived pancreatic carcinoma cell line growth inhibition [POLQ]
- cond: second compound 0.0316 µM; first compound 10 µM; hits give low values
assay_readout: viability, T/C (%)
One number for each entry, in %.

Example cases with answers are listed next.
compound	tgt	viability, T/C / %
C#Cc1c(F)ccc2cc(O)cc(-c3ncc4c(N5CC6CCC(C5)N6)nc(OCC56CCCN5CC(F)C6)nc4c3F)c12 (stereo unspecified) + Nc1ccc(C#CCN(C(=O)Cc2ncc(C(F)(F)F)cc2C(F)(F)F)c2ccc(F)cc2)nn1	699152-130-R-J1-PDC complex spheroid viability	11.9
C#Cc1c(F)ccc2cc(O)cc(-c3ncc4c(N5CC6CCC(C5)N6)nc(OCC56CCCN5CC(F)C6)nc4c3F)c12 (stereo unspecified) + COC1C(OC(N)=O)C(O)C(Oc2ccc3c(O)c(NC(=O)c4ccc(O)c(CC=C(C)C)c4)c(=O)oc3c2C)OC1(C)C	699152-130-R-J1-PDC complex spheroid viability	14.2
C=CC(=O)N1CCN(c2nc(=O)n(-c3c(C)ccnc3C(C)C)c3nc(-c4c(O)cccc4F)c(F)cc23)C(C)C1 (stereo unspecified) + Cc1cccc(N(C)C(=O)C2C(O)CCN2c2nc(C)cc(C(F)(F)F)c2C#N)c1	699152-130-R-J1-PDC complex spheroid viability	115
COc1cccc2c1C(=O)c1c(O)c3c(c(O)c1C2=O)CC(O)(C(=O)CO)CC3OC1CC(N)C(O)C(C)O1 (stereo unspecified) + COC1C(OC(N)=O)C(O)C(Oc2ccc3c(O)c(NC(=O)c4ccc(O)c(CC=C(C)C)c4)c(=O)oc3c2C)OC1(C)C	699152-130-R-J1-PDC complex spheroid viability	9.4
CNCc1ccc(-c2[nH]c3cc(F)cc4c3c2CCNC4=O)cc1 + Nc1ccc(C#CCN(C(=O)Cc2ncc(C(F)(F)F)cc2C(F)(F)F)c2ccc(F)cc2)nn1	699152-130-R-J1-PDC complex spheroid viability	123
CCc1cc2c(N3CCc4c(cc(Cn5ccnc5)cc4-c4cn(C)nc4C(F)(F)F)C3=O)ccnc2c(OC)n1 + COC1C(OC(N)=O)C(O)C(Oc2ccc3c(O)c(NC(=O)c4ccc(O)c(CC=C(C)C)c4)c(=O)oc3c2C)OC1(C)C	699152-130-R-J1-PDC complex spheroid viability	97.3
CNCc1ccc(-c2[nH]c3cc(F)cc4c3c2CCNC4=O)cc1 + COC1C(OC(N)=O)C(O)C(Oc2ccc3c(O)c(NC(=O)c4ccc(O)c(CC=C(C)C)c4)c(=O)oc3c2C)OC1(C)C	699152-130-R-J1-PDC complex spheroid viability	123
O=C(Nc1ccc(O)c(NS(=O)(=O)c2ccc(F)cc2)c1)c1ccc(-c2ccccc2)cc1 + Cc1cccc(N(C)C(=O)C2C(O)CCN2c2nc(C)cc(C(F)(F)F)c2C#N)c1	699152-130-R-J1-PDC complex spheroid viability	78

# per-item lookup of viability, T/C; items listed below
1. CNCc1ccc(-c2[nH]c3cc(F)cc4c3c2CCNC4=O)cc1 + Cc1cccc(N(C)C(=O)C2C(O)CCN2c2nc(C)cc(C(F)(F)F)c2C#N)c1
2. CC1COCCN1c1cc(C2(O)CC3CCC(C2)O3)c2cnn(-c3ccn[nH]3)c2n1 (stereo unspecified) + Nc1ccc(C#CCN(C(=O)Cc2ncc(C(F)(F)F)cc2C(F)(F)F)c2ccc(F)cc2)nn1
3. COc1cc2cc(C(=O)CCC(=O)O)sc2cc1OC + Cc1cccc(N(C)C(=O)C2C(O)CCN2c2nc(C)cc(C(F)(F)F)c2C#N)c1

Result block:
1. 126
2. 35.1
3. 95.3

###

- Test system: 699152-130-R-J1-PDC complex spheroid viability
- test_protocol: Anticancer human tumor 699152-130-R-J1-PDC cell line growth inhibition [POLQ];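 also: spheroids exposed to agents for 7 days before viability reading; percent of DMSO vehicle control viability so 100% = vehicle and 0% = no viable signal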
- cond: second compound 0.1 µM; first compound 0.316 µM; hits give low values
assay_readout: viability, T/C (%)
Answers are plain numbers, in %.

molecule	tgt	viability, T/C / %
O=C(c1cc(Cc2n[nH]c(=O)c3ccccc23)ccc1F)N1CCN(C(=O)C2CC2)CC1 + Nc1ccc(C#CCN(C(=O)Cc2ncc(C(F)(F)F)cc2C(F)(F)F)c2ccc(F)cc2)nn1	699152-130-R-J1-PDC complex spheroid viability	97.8

For each of the items listed, what is its viability, T/C?
1. C#Cc1c(F)ccc2cc(O)cc(-c3ncc4c(N5CC6CCC(C5)N6)nc(OCC56CCCN5CC(F)C6)nc4c3F)c12 (stereo unspecified) + Cc1cccc(N(C)C(=O)C2C(O)CCN2c2nc(C)cc(C(F)(F)F)c2C#N)c1
2. CC(C)n1c(=O)n(C)c2cnc3cc(F)c(-c4ccc(OCCCN5CCCCC5)nc4)cc3c21 + Nc1ccc(C#CCN(C(=O)Cc2ncc(C(F)(F)F)cc2C(F)(F)F)c2ccc(F)cc2)nn1
3. O=C(Nc1ccc(O)c(NS(=O)(=O)c2ccc(F)cc2)c1)c1ccc(-c2ccccc2)cc1 + Cc1cccc(N(C)C(=O)C2C(O)CCN2c2nc(C)cc(C(F)(F)F)c2C#N)c1

Result block:
1. 15.5
2. 106
3. 100

Take each entry in turn and give its viability, T/C.
1. COc1ccc([C@@H](O)c2cc(-c3ncnc4cc(N5CCOCC5)ccc34)c(F)cc2Cl)nn1 + Cc1cccc(N(C)C(=O)C2C(O)CCN2c2nc(C)cc(C(F)(F)F)c2C#N)c1
2. COc1cc2cc(C(=O)CCC(=O)O)sc2cc1OC + Nc1ccc(C#CCN(C(=O)Cc2ncc(C(F)(F)F)cc2C(F)(F)F)c2ccc(F)cc2)nn1

Result block:
1: 87.7; 2: 95.5

###

- Test system: 699152-130-R-J1-PDC complex spheroid viability
- test_protocol: Anticancer human tumor 699152-130-R-J1-PDC cell line growth inhibition [POLQ];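 also: spheroids exposed to agents for 7 days before viability reading; percent of DMSO vehicle control viability so 100% = vehicle and 0% = no viable signal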
- cond: second compound 3.16 µM; first compound 0.316 µM; hits give low values
Kindly state viability, T/C for each of the entries shown.
Give bare numbers, in %.

The examples below pair each entry with its known result.
compound	viability, T/C, %
C=CC(=O)N1CCN(c2nc(=O)n(-c3c(C)ccnc3C(C)C)c3nc(-c4c(O)cccc4F)c(F)cc23)C(C)C1 (stereo unspecified) + Nc1ccc(C#CCN(C(=O)Cc2ncc(C(F)(F)F)cc2C(F)(F)F)c2ccc(F)cc2)nn1	102
COc1cccc2c1C(=O)c1c(O)c3c(c(O)c1C2=O)CC(O)(C(=O)CO)CC3OC1CC(N)C(O)C(C)O1 (stereo unspecified) + Nc1ccc(C#CCN(C(=O)Cc2ncc(C(F)(F)F)cc2C(F)(F)F)c2ccc(F)cc2)nn1	51.2
COc1ccc([C@@H](O)c2cc(-c3ncnc4cc(N5CCOCC5)ccc34)c(F)cc2Cl)nn1 + Cc1cccc(N(C)C(=O)C2C(O)CCN2c2nc(C)cc(C(F)(F)F)c2C#N)c1	83.6
COc1cc(C2c3cc4c(cc3C(OC3OC5COC(C)OC5C(O)C3O)C3COC(=O)C23)OCO4)cc(OC)c1O (stereo unspecified) + Nc1ccc(C#CCN(C(=O)Cc2ncc(C(F)(F)F)cc2C(F)(F)F)c2ccc(F)cc2)nn1	81

Give me viability, T/C for each of these compounds, listed below.
1. O=c1[nH]cc(F)c(=O)[nH]1 + Cc1cccc(N(C)C(=O)C2C(O)CCN2c2nc(C)cc(C(F)(F)F)c2C#N)c1
2. CCc1c2c(nc3ccc(O)cc13)-c1cc3c(c(=O)n1C2)COC(=O)[C@]3(O)CC + COC1C(OC(N)=O)C(O)C(Oc2ccc3c(O)c(NC(=O)c4ccc(O)c(CC=C(C)C)c4)c(=O)oc3c2C)OC1(C)C
3. C=CCn1c(=O)c2cnc(Nc3ccc(N4CCN(C)CC4)cc3)nc2n1-c1cccc(C(C)(C)O)n1 + COC1C(OC(N)=O)C(O)C(Oc2ccc3c(O)c(NC(=O)c4ccc(O)c(CC=C(C)C)c4)c(=O)oc3c2C)OC1(C)C
4. CC1COCCN1c1cc(C2(O)CC3CCC(C2)O3)c2cnn(-c3ccn[nH]3)c2n1 (stereo unspecified) + Nc1ccc(C#CCN(C(=O)Cc2ncc(C(F)(F)F)cc2C(F)(F)F)c2ccc(F)cc2)nn1
5. O=C(Nc1ccc(O)c(NS(=O)(=O)c2ccc(F)cc2)c1)c1ccc(-c2ccccc2)cc1 + Nc1ccc(C#CCN(C(=O)Cc2ncc(C(F)(F)F)cc2C(F)(F)F)c2ccc(F)cc2)nn1

Result block:
1: 108; 2: 28.5; 3: 96.4; 4: 65.5; 5: 103

For each entry beneath this line, provide reported viability, T/C.
1. C=CCn1c(=O)c2cnc(Nc3ccc(N4CCN(C)CC4)cc3)nc2n1-c1cccc(C(C)(C)O)n1 + Cc1cccc(N(C)C(=O)C2C(O)CCN2c2nc(C)cc(C(F)(F)F)c2C#N)c1
2. CC(C)n1c(=O)n(C)c2cnc3cc(F)c(-c4ccc(OCCCN5CCCCC5)nc4)cc3c21 + Cc1cccc(N(C)C(=O)C2C(O)CCN2c2nc(C)cc(C(F)(F)F)c2C#N)c1

Result block:
1. 81.7
2. 103

Values compiled from PubChem BioAssay AID1963835.
